The reported numbers originate from ChEMBL document CHEMBL4414599.

- Target under test: Proteasome Macropain subunit MB1 (Homo sapiens)
- Sequence (P28074 whole entry): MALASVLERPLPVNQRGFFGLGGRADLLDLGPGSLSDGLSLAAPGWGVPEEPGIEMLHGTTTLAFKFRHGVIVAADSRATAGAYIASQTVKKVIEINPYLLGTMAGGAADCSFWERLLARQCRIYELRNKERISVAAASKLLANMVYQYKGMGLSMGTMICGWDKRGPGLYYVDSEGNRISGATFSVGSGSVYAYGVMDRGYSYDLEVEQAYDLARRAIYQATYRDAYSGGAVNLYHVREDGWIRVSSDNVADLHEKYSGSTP
- Assay protocol: Inhibition of human 20S proteasome beta-5c subunit using Suc-LLVY-AMC as substrate and measured every 30 secs for 30 mins by microtiter plate assay
pIC50: −log10 of the molar value.
# Lookup of reported pIC50 keyed by entry
Parameter measured: pIC50

>>> result("Cc1cc(C(=O)N[C@@H](CC(=O)N2CCCC[C@@H]2C)C(=O)N[C@@H](C)C(=O)NCc2ccc(F)cc2F)no1")
5.85
>>> result("Cc1cc(C(=O)N[C@@H](CC(=O)N2CCC[C@@H]2c2ccccc2)C(=O)N[C@@H](C)c2ncc(-c3ccccc3)[nH]2)no1")
"< 4.00"
>>> result("COc1ccccc1CNC(=O)[C@H](C)NC(=O)[C@H](CC(=O)N1CCC[C@@H]1c1ccccc1)NC(=O)c1cc(C)on1")
"< 4.00"
